# credit: paper PMC7531004

Item-by-item account of viability
COND: cell viability/%
Where a SMILES comes first, the peptide text is derived from it. [ ]: non-standard residue; d: D form. The star is where a group is joined. NHCH2CH2OH = OCCN*; For = O=C*
Answer format: numeric, % implied, no suffix.

CNC(=O)C[C@@H](NC(=O)[C@H](Cc1c[nH]c2ccccc12)NC(=O)[C@H](NC(=O)[C@@H](NC(=O)[C@@H](CC(C)C)NC(=O)[C@H](C)NC(=O)[C@@H](CC(C)C)NC(=O)[C@H](C)NC(=O)CNC(=O)[C@@H](NC=O)C(C)C)C(C)C)C(C)C)C(=O)N[C@@H](Cc1c[nH]c2ccccc12)C(=O)N[C@H](CC(C)C)C(=O)N[C@@H](Cc1c[nH]c2ccccc12)C(=O)N[C@@H](C(=O)N[C@@H](Cc1c[nH]c2ccccc12)C(=O)NCCO)C(C)C [compound 3329] (For-VGA[dL]A[dL]V[dV]W[dD](NHMe)W[dL]W[dV]W-NHCH2CH2OH)
100

The record that follows has no viability shown yet.
[ask] What measured viability goes with CC(C)C[C@@H](NC(=O)[C@H](Cc1c[nH]c2ccccc12)NC(=O)[C@H](NC(=O)[C@H](Cc1c[nH]c2ccccc12)NC(=O)[C@H](NC(=O)[C@H](Cc1c[nH]c2ccccc12)NC(=O)[C@H](NC(=O)[C@@H](NC(=O)[C@H](NC(=O)[C@H](C)NC(=O)[C@H](NC(=O)[C@H](C)NC(=O)CNC(=O)[C@@H](NC=O)C(C)C)[C@H](C)O)C(C)C)C(C)C)C(C)C)C(C)C)C(C)C)C(=O)N[C@@H](Cc1c[nH]c2ccccc12)C(=O)NCCO [compound 6606] (For-VGA[dT]A[dV]V[dV]W[dV]W[dV]W[dL]W-NHCH2CH2OH) ?
[reply] 100
